Molecular target: equine butyrylcholinesterase (eqBChE) (Equus caballus, UniProt P81908)
Sequence (P81908 whole entry): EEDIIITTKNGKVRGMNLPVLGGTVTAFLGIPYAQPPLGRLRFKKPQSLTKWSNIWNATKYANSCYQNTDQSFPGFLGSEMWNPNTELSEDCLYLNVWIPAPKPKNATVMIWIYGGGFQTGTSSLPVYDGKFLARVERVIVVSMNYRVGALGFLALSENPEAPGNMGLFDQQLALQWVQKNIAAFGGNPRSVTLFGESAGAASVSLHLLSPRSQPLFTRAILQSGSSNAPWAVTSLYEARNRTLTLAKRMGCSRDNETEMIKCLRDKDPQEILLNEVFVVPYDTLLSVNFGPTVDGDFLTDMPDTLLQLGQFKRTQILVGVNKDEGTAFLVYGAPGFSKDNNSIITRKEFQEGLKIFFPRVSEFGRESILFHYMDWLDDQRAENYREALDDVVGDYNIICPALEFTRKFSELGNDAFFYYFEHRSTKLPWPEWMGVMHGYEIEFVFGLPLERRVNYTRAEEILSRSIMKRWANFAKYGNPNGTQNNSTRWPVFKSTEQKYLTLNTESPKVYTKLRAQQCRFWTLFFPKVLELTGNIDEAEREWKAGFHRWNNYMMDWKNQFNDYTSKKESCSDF
Let's look at some compounds and their measured IC50.
Entry rule: numbers only, all in µM.

INPUT: Please tell me: IC50 of CCN(C)C(=O)Oc1cccc(CNC(=O)c2cccc3[nH]c(-c4ccccc4O)nc23)c1 [Compound 5b] , system equine butyrylcholinesterase (eqBChE) (Equus caballus, UniProt P81908)?
OUTPUT: 0.3

INPUT: Notebook entry, equine butyrylcholinesterase (eqBChE) (Equus caballus, UniProt P81908) assay: IC50 of CCN(C)C(=O)Oc1cccc(CCNC(=O)c2ccc3nc(-c4ccccc4O)[nH]c3c2)c1 [Compound 4c] = ?
OUTPUT: 4.8

INPUT: Hello, I am looking for reported IC50 with equine butyrylcholinesterase (eqBChE) (Equus caballus, UniProt P81908) for CCN(C)C(=O)Oc1cccc(CNC(=O)c2ccc3nc(-c4ccccc4O)[nH]c3c2)c1 [Compound 4b] . Could you help?
OUTPUT: 6.5

INPUT: What value of IC50 on equine butyrylcholinesterase (eqBChE) (Equus caballus, UniProt P81908) does CCN(C)C(=O)Oc1ccc(CCCNC(=O)c2ccc3nc(-c4ccccc4O)[nH]c3c2)cc1 [Compound 4d] have?
OUTPUT: 19.2

INPUT: I'm curious: which IC50 was measured for CCN(C)C(=O)Oc1ccc(CCCNC(=O)c2cccc3[nH]c(-c4ccccc4O)nc23)cc1 [Compound 5d] tested on equine butyrylcholinesterase (eqBChE) (Equus caballus, UniProt P81908)?
OUTPUT: 1.7

INPUT: Provide the documented IC50 with equine butyrylcholinesterase (eqBChE) (Equus caballus, UniProt P81908) as the system for CCN(C)C(=O)Oc1cccc(NC(=O)c2ccc3nc(-c4ccccc4O)[nH]c3c2)c1 [Compound 4a]
OUTPUT: 5.85

INPUT: What is its IC50 for equine butyrylcholinesterase (eqBChE) (Equus caballus, UniProt P81908)? Entry: CCN(C)C(=O)Oc1cccc(NC(=O)c2cccc3[nH]c(-c4ccccc4O)nc23)c1 [Compound 5a]
OUTPUT: 0.9

The origin of these recorded values is paper PMC9313321.
